Target: T1, Csm2;Psy3;Shu1;Shu2 (Saccharomyces cerevisiae?;Saccharomyces …, UniProt P40465;Q12318;P38751;P38957 1-213;1-242;1-150;1-223, |||)
T1 sequence 1: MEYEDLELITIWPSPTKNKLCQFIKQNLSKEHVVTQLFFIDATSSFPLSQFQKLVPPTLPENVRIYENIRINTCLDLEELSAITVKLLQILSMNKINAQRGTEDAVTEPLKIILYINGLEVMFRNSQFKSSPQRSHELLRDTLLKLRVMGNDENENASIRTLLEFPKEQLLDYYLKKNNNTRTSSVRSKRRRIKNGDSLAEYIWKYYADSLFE
T1 sequence 2: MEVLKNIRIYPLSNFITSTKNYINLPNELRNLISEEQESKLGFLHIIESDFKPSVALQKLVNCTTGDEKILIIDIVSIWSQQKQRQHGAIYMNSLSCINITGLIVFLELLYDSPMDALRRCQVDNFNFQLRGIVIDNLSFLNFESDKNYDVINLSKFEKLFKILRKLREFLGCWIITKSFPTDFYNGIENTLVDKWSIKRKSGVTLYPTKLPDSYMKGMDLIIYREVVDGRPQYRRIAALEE
T1 sequence 3: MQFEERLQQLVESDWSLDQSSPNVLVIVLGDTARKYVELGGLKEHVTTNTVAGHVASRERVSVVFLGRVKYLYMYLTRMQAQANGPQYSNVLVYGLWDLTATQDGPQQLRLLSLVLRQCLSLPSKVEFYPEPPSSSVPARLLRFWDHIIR
T1 sequence 4: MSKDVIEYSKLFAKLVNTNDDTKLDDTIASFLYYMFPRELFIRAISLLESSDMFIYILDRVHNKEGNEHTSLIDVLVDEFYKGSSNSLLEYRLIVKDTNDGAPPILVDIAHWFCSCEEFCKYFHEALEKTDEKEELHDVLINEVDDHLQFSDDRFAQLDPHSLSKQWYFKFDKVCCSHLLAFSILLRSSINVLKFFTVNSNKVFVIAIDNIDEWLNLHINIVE
Assay: fluorescence polarization
measurement_kind: pKd
Numbers only, as −log10 of the molar value.

[[record]]
binder = "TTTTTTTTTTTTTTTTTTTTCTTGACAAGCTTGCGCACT (ssDNA) [ss39]"
measurement_kind = "pKd"
observed = 5.63

[[record]]
binder = "5'-overhang (20nt) (dsDNA) DNA 1: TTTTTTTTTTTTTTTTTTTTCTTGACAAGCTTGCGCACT DNA 2: AGTGCGCAAGCTTGTCAAG"
measurement_kind = "pKd"
observed = 5.62

[[record]]
binder = "ss60 (ssDNA) DNA: TTTTTTTTTTTTTTTTTTTTTTTTTTTTTTCTTGACAAGCTTGCGCACTTAGGCCTCTAG"
measurement_kind = "pKd"
observed = 5.70


Look up pKd for the entries below, preserving their order.
1. ds39 (dsDNA) DNA 1: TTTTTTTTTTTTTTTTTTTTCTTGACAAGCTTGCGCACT DNA 2: AGTGCGCAAGCTTGTCAAGAAAAAAAAAAAAAAAAAAAA
2. 3'-overhang (20nt) (dsDNA) DNA 1: CTTGACAAGCTTGCGCACT DNA 2: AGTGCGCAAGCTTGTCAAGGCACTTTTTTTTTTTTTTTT
3. Fork (20nt) (dsDNA) DNA 1: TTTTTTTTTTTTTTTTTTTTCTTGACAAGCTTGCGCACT DNA 2: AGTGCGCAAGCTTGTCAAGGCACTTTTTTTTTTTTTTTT

A:
5.24
5.57
6.01

Origin of values: paper doi:10.1101/2024.04.22.590616
